Measured Ki, listed per entry.
# target_entity: human recombinant dopamine D3 receptor (Homo sapiens (Human), UniProt P35462)
# Sequence (P35462 whole entry): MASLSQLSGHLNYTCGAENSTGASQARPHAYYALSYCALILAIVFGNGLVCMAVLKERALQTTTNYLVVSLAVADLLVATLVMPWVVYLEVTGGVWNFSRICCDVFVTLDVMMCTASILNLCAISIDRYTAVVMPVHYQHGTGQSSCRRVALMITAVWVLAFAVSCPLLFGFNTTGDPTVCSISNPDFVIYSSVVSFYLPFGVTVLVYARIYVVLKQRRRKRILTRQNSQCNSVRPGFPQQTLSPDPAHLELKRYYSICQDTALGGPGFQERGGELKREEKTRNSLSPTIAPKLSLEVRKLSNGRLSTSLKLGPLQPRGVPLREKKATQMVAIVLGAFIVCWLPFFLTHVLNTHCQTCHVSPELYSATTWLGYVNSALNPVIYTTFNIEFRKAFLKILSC
# assay_summary: Test of binding inhibition for dopamine D3 receptor ([3H]-Methylspiperone SPA)
# reported_conditions: Jump-In HEK cell membranes, 2 nM [3H]-Methylspiperone, 120 min at 25° C.; read-out: hD3_Ki
Hi, when you answer, please include the unit after the number. Thanks!

Cc1nnc(CC(=O)N[C@H]2CC[C@H](CCN3CCc4ccc(OCC(F)F)nc4CC3)CC2)o1 = 0.17 nM

Tested on human recombinant dopamine D3 receptor (Homo sapiens (Human), UniProt P35462): Cc1nnc(CC(=O)N[C@H]2CC[C@](F)(CCN3CCc4nc(O[C@H](C)C(F)(F)F)sc4CC3)CC2)s1 . Observed Ki: 0.92 nM

Tested on human recombinant dopamine D3 receptor (Homo sapiens (Human), UniProt P35462): C[C@@H](Oc1ccc2c(n1)CCN(CC[C@]1(F)CC[C@@H](NC(=O)Cc3cnn(C)n3)CC1)CC2)C(F)(F)F . Observed Ki: 0.33 nM

Tested on human recombinant dopamine D3 receptor (Homo sapiens (Human), UniProt P35462): Cn1cc(CC(=O)N[C@H]2CC[C@](F)(CCN3CCc4nc(OCC(F)F)sc4CC3)CC2)cn1 . Observed Ki: 0.69 nM

* * *

# target_entity: human recombinant dopamine D2 receptor (Homo sapiens (Human))
# Sequence (P14416 whole entry): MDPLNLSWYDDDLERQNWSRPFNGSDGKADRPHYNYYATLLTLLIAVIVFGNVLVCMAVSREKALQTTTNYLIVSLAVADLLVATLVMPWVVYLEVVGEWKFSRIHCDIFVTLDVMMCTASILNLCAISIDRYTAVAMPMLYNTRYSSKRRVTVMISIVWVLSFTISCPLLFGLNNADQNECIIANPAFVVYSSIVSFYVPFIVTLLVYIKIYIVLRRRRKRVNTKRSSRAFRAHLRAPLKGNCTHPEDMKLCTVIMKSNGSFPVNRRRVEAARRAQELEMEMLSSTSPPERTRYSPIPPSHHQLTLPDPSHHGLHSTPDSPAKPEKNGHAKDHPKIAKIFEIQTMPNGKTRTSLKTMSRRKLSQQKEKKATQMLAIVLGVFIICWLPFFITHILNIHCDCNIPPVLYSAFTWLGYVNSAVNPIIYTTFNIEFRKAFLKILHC
# assay_summary: Test of binding inhibition for dopamine D2 receptor ([3H]-Methylspiperone SPA)
# reported_conditions: Jump-In HEK cell membranes, 1.2 nM [3H]-Methylspiperone, 120 min at 25° C.; read-out: hD2_Ki
Measured pKi, listed per entry.
pKi (log units): -log10 of the concentration in mol/L.

Cc1ncc(OCC(=O)N[C@H]2CC[C@H](CCN3CCc4nc(OCC(C)(F)F)sc4CC3)OC2)cn1 = 6.06

Lookup result for C[C@@H](Oc1ccc2c(n1)CCN(CC[C@]1(F)CC[C@@H](NC(=O)Cc3cnn(C)n3)CC1)CC2)C(F)(F)F ; measured pKi: 6.43

Lookup result for O=C(N[C@H]1CC[C@](F)(CCN2CCc3nc(OCC(F)(F)F)sc3CC2)CC1)c1cccnc1C(F)F ; measured pKi: 6.24

Lookup result for Cn1cc(OCC(=O)N[C@H]2CC[C@](F)(CCN3CCc4nc(OCC(C)(F)F)sc4CC3)CC2)cn1 ; measured pKi: 6.62

Lookup result for Cn1ncc2ccc(C(=O)N[C@H]3CC[C@H](CCN4CCc5nc(OCC(C)(F)F)sc5CC4)OC3)cc21 ; measured pKi: 6.43

* * *

# target_entity: human recombinant dopamine D2 receptor (Homo sapiens (Human))
# assay_summary: Test of binding inhibition for dopamine D2 receptor ([3H]-Methylspiperone SPA)
# reported_conditions: [3H]-Methylspiperone 1.2 nM, Jump-In HEK cell membranes; read-out: hD2_Ki
assay_metric: Ki (nM)
Use nM as the unit, but write only the number.

Worked examples, 6 molecules total:
Cc1ncc(/C=C/C(=O)NC23CCC(CCN4CCc5nc(OCC(F)(F)F)sc5CC4)(CC2)CC3)cn1 = 240
Cc1nnc(CC(=O)NC23CCC(CCN4CCc5nc(OCC(F)(F)F)sc5CC4)(CC2)CC3)o1 = 1300
Cn1c(C(=O)N[C@H]2CC[C@H](CCN3CCc4ccc(CCC(F)(F)F)nc4CC3)CC2)cccc1=O = 610
Cn1ncc(CC(=O)N[C@H]2CC[C@H](CCN3CCc4ccc(OCC(C)(F)F)nc4CC3)CC2)n1 = 500
Cc1ncccc1C(=O)NC12CCC(CCN3CCc4nc(OCC(F)(F)F)sc4CC3)(CC1)CC2 = 1700
Cn1c(C(=O)N[C@H]2CC[C@](F)(CCN3CCc4nc(OCC(F)(F)F)sc4CC3)CC2)cccc1=O = 290

Lookup result for Cn1c(C(=O)NC23CCC(CCN4CCc5nc(OCC(F)(F)F)sc5CC4)(CC2)CC3)cccc1=O ; measured Ki: 830

Lookup result for Cc1nnc(CC(=O)N[C@H]2CC[C@H](CCN3CCc4ccc(CCC(F)(F)F)nc4CC3)CC2)s1 ; measured Ki: 820

Lookup result for Cn1cc2c(C(=O)NC34CCC(CCN5CCc6nc(OCC(F)(F)F)sc6CC5)(CC3)CC4)cccc2n1 ; measured Ki: 1600

Lookup result for Cc1ncc(OCC(=O)NC23CCC(CCN4CCc5nc(OCC(F)(F)F)sc5CC4)(CC2)OC3)cn1 ; measured Ki: 1500

Lookup result for O=C(NC12CCC(CCN3CCc4nc(OCC(F)(F)F)sc4CC3)(CC1)CC2)c1cccnc1C(F)F ; measured Ki: 1400

Lookup result for Cn1cc2c(C(=O)N[C@H]3CC[C@H](CCN4CCc5ccc(CCC(F)(F)F)nc5CC4)CC3)ccc(F)c2n1 ; measured Ki: 530
